tested on: Escherichia coli; test: Antibacterial activity against Escherichia coli ATCC25922 assessed as bacterial growth inhibition after 24 hrs by broth dilution method; type: functional; settings: ATCC25922, 24 h
Endpoint Name: MIC

INSERT INTO measurements (smiles_input, endpoint_name, experimental_result) VALUES
  ('CC1(C)S[C@@H]2[C@H](NC(=O)Cc3ccccc3)C(=O)N2[C@H]1C(=O)O', 'MIC', '64 µg/mL');

Query string: Give MIC (Escherichia coli) of the following molecule: `COC(=O)c1c(O)cc(OC)cc1/C=C/c1ccc(F)cc1`
Result string: > 128 µg/mL

Query string: Give MIC (Escherichia coli) of the following molecule: `COc1cc(/C=C/c2cccc(F)c2)c(C(=O)O)c(O)c1CC=C(C)C`
Result string: > 128 µg/mL

Query string: Give MIC (Escherichia coli) of the following molecule: `COC(=O)c1c(/C=C/c2cccc(C#N)c2)cc(OC)c(CC=C(C)C)c1O`
Result string: > 128 µg/mL

Query string: Give MIC (Escherichia coli) of the following molecule: `COC(=O)c1c(O)cc(OC)cc1/C=C/c1ccc(C(F)(F)F)cc1`
Result string: > 128 µg/mL

Query string: Give MIC (Escherichia coli) of the following molecule: `COc1cc(/C=C/c2ccc(Cl)cc2)c(C(=O)O)c(O)c1CC=C(C)C`
Result string: 128 µg/mL

Query string: Give MIC (Escherichia coli) of the following molecule: `COc1cc(/C=C/c2ccc(C(F)(F)F)cc2)c(C(=O)O)c(O)c1CC=C(C)C`
Result string: > 128 µg/mL

Query string: Give MIC (Escherichia coli) of the following molecule: `COC(=O)c1c(/C=C/c2ccc(OC)cc2)cc(OC)c(CC=C(C)C)c1O`
Result string: > 128 µg/mL

Query string: Give MIC (Escherichia coli) of the following molecule: `COc1cc(/C=C/c2ccc(F)cc2F)c(C(=O)O)c(O)c1CC=C(C)C`
Result string: > 128 µg/mL

Query string: Give MIC (Escherichia coli) of the following molecule: `COC(=O)c1c(/C=C/c2cc(OC)c(OC)c(OC)c2)cc(OC)c(CC=C(C)C)c1O`
Result string: > 128 µg/mL
